Target: Muscarinic acetylcholine receptor M1 (Homo sapiens)
Experiment: ACh-evoked M1 calcium response modulation – cell-based, human M1, selectivity assay for M5 NAM discovery project (AID 743098)
Details: CHO-K1 hM1 calcium flux, Fluo-4, ACh EC20; at 30 µM; hits give low values
// returns not met unless response, % of max ACh is strictly below 80%, in which case met

Is it true that response, % of max ACh reported for O=C(c1ccc(F)c(F)c1)N1CCN2C(=O)c3ccccc3C12c1ccccc1 (stereo not given) is less than 80%? not met

A record lists `O=C(c1ccc(F)c(F)c1)N1CCN2C(=O)c3ccccc3[C@@]12c1ccc(Cl)cc1` . Is its response, % of max ACh below 80%? met

Please state whether response, % of max ACh is below 80% for O=C(c1ccc(F)cc1)N1CCN2C(=O)c3ccccc3C12c1ccccc1 (stereo not given) not met
